TEST_SUMMARY: Inhibition of p38 assessed as rate of ATF-2 phosphorylation by immunosorbent non-radioactive enzyme assay
# key: entry, value: pIC50
In textbook form, pIC50 equals minus log to base ten of the concentration in mol/L.

pIC50 in this record for Nc1ccccc1Nc1ccc2c(c1)Oc1ccccc1CC2=O : 5.92

pIC50 in this record for Nc1cc(F)ccc1Nc1ccc2c(c1)Oc1ccccc1NC2=O : 5.53

pIC50 in this record for Nc1ccccc1Nc1ccc2c(c1)Cc1ccccc1CC2=O : 6.00

Next up:
pIC50 in this record for O=C1Cc2ccccc2Cc2cc(Nc3ccc(F)cc3F)ccc21 : 5.82

---

TARGET_ENTITY: Vascular endothelial growth factor receptor 2 (Homo sapiens) (UniProt P35968)
Sequence (P35968 whole entry): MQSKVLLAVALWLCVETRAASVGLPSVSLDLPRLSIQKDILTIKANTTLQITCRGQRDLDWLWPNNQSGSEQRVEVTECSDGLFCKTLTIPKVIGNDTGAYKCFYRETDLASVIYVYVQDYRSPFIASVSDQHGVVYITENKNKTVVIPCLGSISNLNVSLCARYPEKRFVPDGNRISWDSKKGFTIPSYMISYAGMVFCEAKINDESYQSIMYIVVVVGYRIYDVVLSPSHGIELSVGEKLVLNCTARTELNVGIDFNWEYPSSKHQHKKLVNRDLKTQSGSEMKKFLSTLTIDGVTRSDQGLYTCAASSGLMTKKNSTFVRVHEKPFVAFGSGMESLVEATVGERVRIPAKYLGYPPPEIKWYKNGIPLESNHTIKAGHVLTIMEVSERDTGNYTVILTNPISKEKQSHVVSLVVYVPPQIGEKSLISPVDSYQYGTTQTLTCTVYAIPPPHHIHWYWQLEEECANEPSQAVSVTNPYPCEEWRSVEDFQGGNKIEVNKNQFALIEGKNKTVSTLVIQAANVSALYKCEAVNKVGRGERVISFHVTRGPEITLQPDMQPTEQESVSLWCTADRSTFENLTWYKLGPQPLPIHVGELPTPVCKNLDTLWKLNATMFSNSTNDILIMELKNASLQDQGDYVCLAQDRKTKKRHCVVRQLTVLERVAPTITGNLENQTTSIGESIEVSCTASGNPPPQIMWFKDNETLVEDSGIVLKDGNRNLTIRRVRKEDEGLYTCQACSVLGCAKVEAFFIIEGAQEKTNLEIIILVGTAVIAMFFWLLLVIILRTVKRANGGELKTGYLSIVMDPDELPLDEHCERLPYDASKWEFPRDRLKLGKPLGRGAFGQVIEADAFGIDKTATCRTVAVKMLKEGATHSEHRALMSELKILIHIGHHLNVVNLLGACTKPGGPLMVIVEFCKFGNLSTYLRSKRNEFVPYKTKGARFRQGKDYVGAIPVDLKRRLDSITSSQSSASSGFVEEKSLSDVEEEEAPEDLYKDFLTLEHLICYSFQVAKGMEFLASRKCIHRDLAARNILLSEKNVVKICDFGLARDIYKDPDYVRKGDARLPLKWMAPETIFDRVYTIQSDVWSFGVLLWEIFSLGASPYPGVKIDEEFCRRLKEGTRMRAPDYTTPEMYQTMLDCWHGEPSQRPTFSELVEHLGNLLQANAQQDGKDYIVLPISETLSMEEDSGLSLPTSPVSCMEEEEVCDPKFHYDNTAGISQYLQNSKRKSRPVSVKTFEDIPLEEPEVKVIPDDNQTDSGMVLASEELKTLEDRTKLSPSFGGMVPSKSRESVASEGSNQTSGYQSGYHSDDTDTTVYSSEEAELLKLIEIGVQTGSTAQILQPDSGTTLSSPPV
TEST_SUMMARY: Inhibition of VGFR2 at 10 uM
Active and inactive are the calls of the source. No cut-off for these calls is given here.
EXPERIMENTAL_READOUT: inhibition

inhibition in this record for O=C1Cc2ccc(Nc3ccccc3)cc2Cc2ccccc21 : inactive

inhibition in this record for Nc1ccc(Nc2ccc3c(c2)Cc2ccccc2CC3=O)cc1 : inactive

inhibition in this record for Nc1ccccc1Nc1ccc2c(c1)Cc1ccccc1C(=O)C2 : inactive

---

TARGET_ENTITY: Casein kinase II subunit alpha (Homo sapiens)
TEST_SUMMARY: Inhibition of CK2alpha1 at 10 uM
Calls of active or inactive are those of the source. No cut-off for these calls is given here.
EXPERIMENTAL_READOUT: inhibition

inhibition in this record for O=C1Cc2ccc(Nc3ccccc3)cc2Cc2ccccc21 : inactive

inhibition in this record for Nc1cc(F)ccc1Nc1ccc2c(c1)Cc1ccccc1C(=O)C2 : inactive

inhibition in this record for O=C1Cc2cc(Nc3ccccc3)ccc2Cc2ccccc21 : inactive

inhibition in this record for O=C1Cc2ccccc2Cc2cc(NCc3ccccc3)ccc21 : inactive
